Reference source for all entries: PubChem BioAssay AID248

System: L1210 leukemia ip in BDF1 mice, survival T/C
Experiment: NCI In Vivo Anticancer Drug Screen. Data for tumor model L1210 Leukemia (intraperitoneal) in B6D2F1 (BDF1) mice
Settings: endpoint: mean survival time; dose: 100.0 mg/kg/injection; schedule: Q01DX001 (ip); vehicle: carboxymethylcellulose (CMC); higher = longer survival
Inconclusive results and toxic doses are left out.
Value Type: T/C

CN(C)c1ncnc2[nH]cc([N+](=O)[O-])c12 ... 93 % of control

// field: T/C; key: CCN(CC)CCOC(=O)C1c2ccccc2Oc2ccccc21 ; value = 102 % of control

// field: T/C; key: c1cc[c]([Hg][S]c2nc3ccccc3s2)cc1 ; value = 108 % of control

// field: T/C; key: C/C(=N\NC(N)=S)C(C)(C)O ; value = 110 % of control

// field: T/C; key: CCOC(=O)NNP(=O)(NNC(=O)OCC)c1ccccc1 ; value = 101 % of control

// field: T/C; key: CC(S)c1ccc2c(c1)Cc1ccccc1-2 (configuration not stated) ; value = 101 % of control

// field: T/C; key: COc1cc(NC(C)=O)c2ncccc2c1NC(C)=O ; value = 102 % of control

// field: T/C; key: Oc1ccc(I)c2cccnc12 ; value = 93 % of control

// field: T/C; key: CC1=NN(c2ccccc2)C(=O)C1N=Nc1ccc(S(=O)(=O)Nc2nccc(C)n2)cc1 (configuration not stated) ; value = 98 % of control

// field: T/C; key: CC1C=CCC(C)(C)C1 (configuration not stated) ; value = 95 % of control

// field: T/C; key: C[C@H]1CCC/C=C/[C@@H]2C[C@H](O)C[C@H]2[C@H](O)/C=C/C(=O)O1 ; value = 105 % of control

// field: T/C; key: COc1ccc(C(=O)OC(=O)c2ccc(OC)cc2)cc1 ; value = 104 % of control

---

# T/C listing for each entry below
System: L1210 leukemia ip in BDF1 mice, survival T/C
Assay: NCI In Vivo Anticancer Drug Screen. Data for tumor model L1210 Leukemia (intraperitoneal) in B6D2F1 (BDF1) mice
Conditions: endpoint: mean survival time; dose: 400.0 mg/kg/injection; schedule: Q04DX003 (ip); vehicle: saline; higher = longer survival
Inconclusive results and toxic doses are left out.

Reference set, count: 5
CCOC(=O)c1c(C)[nH]oc1=O ... 96 % of control
CC(C)C1(C)NC(=O)NC1=O (centres undefined) ... 100 % of control
Nc1cccc2[nH]cnc12 ... 101 % of control
CCC(C1=NC(C)(C)CO1)c1ccccc1Br (centres undefined) ... 88 % of control
O=C1OC(=C(Br)Br)C2C3C=CC(CC3)C12 (centres undefined) ... 98 % of control

// field: T/C; key: OCC(O)C1OC(Oc2ccccc2)C(O)C(O)C1O (centres undefined) ; value = 100 % of control

// field: T/C; key: O=c1cc(COc2ccc(O)cc2)[nH]c(=O)[nH]1 ; value = 89 % of control

// field: T/C; key: CN(C)CCOc1ncnc2nc[nH]c12 ; value = 96 % of control

// field: T/C; key: O=CC1(c2ccccc2)SCCCS1 ; value = 100 % of control

// field: T/C; key: COC(=O)c1cn[nH]c1/N=N/N(C)CCO ; value = 119 % of control

// field: T/C; key: COC(=O)C(CCSC)NC(=O)C1CSC(C)(C)N1C=O (centres undefined) ; value = 101 % of control

// field: T/C; key: N#CCCC(CC#N)S(=O)(=O)O (centres undefined) ; value = 106 % of control

// field: T/C; key: ClCc1ccncc1 ; value = 98 % of control

// field: T/C; key: O=S1(=O)CCCCC1c1ccccc1 (centres undefined) ; value = 98 % of control

---

Tested on: L1210 leukemia ip in BDF1 mice, survival T/C
Assay: NCI In Vivo Anticancer Drug Screen. Data for tumor model L1210 Leukemia (intraperitoneal) in B6D2F1 (BDF1) mice
Conditions: endpoint: mean survival time; dose: 200.0 mg/kg/injection; schedule: Q01DX001 (ip); vehicle: saline with Tween-80; higher = longer survival
Toxic doses and inconclusive results are not listed.
# T/C listing for each entry below

CC1=C(c2ccccc2)C(c2ccccc2)=C(C)C1=NNc1ccc([N+](=O)[O-])cc1[N+](=O)[O-] ... 86 % of control
Cc1ccc(Cl)cc1NC(=O)OCCOc1ccccc1 ... 91 % of control
CC(C)CCCC(C)C1CCC2C3CCC(CCO)C(C)(CCO)C3CCC12C (centres undefined) ... 92 % of control
COc1ccc(Cl)cc1NC(=O)Oc1ccc2ccccc2c1 ... 100 % of control
CCCCC(C)(O)c1cc(OC)cc(OC)c1 (centres undefined) ... 97 % of control
CN(C)/N=C\c1ccccc1Cl ... 96 % of control
NC(CNC(=O)Oc1ccccc1)C(=O)O (centres undefined) ... 103 % of control
CCC(=O)OCc1cc2ccccc2c(-c2c(OC(=O)CC)c(COC(=O)CC)cc3ccccc23)c1OC(=O)CC ... 113 % of control
Cc1ccc(S(=O)(=O)OCC2OCOC2C2OCOC2CI)cc1 (centres undefined) ... 101 % of control
Nc1ncnc(N)c1NC(=O)c1ccc(OCCc2ccccc2)c(Cl)c1 ... 96 % of control

// field: T/C; key: CCOC(=O)c1c(N)sc2c1CCC2 ; value = 103 % of control

// field: T/C; key: CSc1ccc(OC(=O)Nc2ccc(Cl)cc2)cc1 ; value = 106 % of control

// field: T/C; key: COc1ccccc1CCCOC(=O)c1ccc([N+](=O)[O-])cc1 ; value = 95 % of control

// field: T/C; key: Cc1ccc(C)c2c(CC(=O)O)c[nH]c12 ; value = 107 % of control

---

System: L1210 leukemia ip in BDF1 mice, survival T/C
Assay: NCI In Vivo Anticancer Drug Screen. Data for tumor model L1210 Leukemia (intraperitoneal) in B6D2F1 (BDF1) mice
Details: endpoint: mean survival time; dose: 400.0 mg/kg/injection; schedule: Q04DX002 (ip); vehicle: gum acacia; higher = longer survival
Toxic doses and inconclusive results are not listed.
# T/C listing for each entry below

Reference set, count: 5
CC(C)CS.[Pb] ... 89 % of control
NC(=Nc1ccccc1)C(N)=Nc1ccccc1 ... 93 % of control
Cc1ccc(S(=O)(=O)N/N=C/Cc2ccccc2)cc1 ... 100 % of control
O=C(/C=C/c1ccc2c(c1)OCO2)c1ccc2ccccc2c1 ... 92 % of control
c1ccc(Nc2ncn[nH]2)cc1 ... 117 % of control

Continue with the next compound.
// field: T/C; key: NC(=N\C1=NCCN1)/C(N)=N/C1=NCCN1 ; value = 97 % of control

---

System: L1210 leukemia ip in BDF1 mice, survival T/C
Test: NCI In Vivo Anticancer Drug Screen. Data for tumor model L1210 Leukemia (intraperitoneal) in B6D2F1 (BDF1) mice
Conditions: endpoint: mean survival time; dose: 200.0 mg/kg/injection; schedule: Q04DX003 (ip); vehicle: Klucel (hydroxypropylcellulose) (HPC); higher = longer survival
Toxic doses and inconclusive results are not listed.
Value Type: T/C

CCCCCCCCCCCCCCCCOc1ccc(C=Nc2ccc(C)cc2)cc1 ... 97 % of control
CCc1nc(C)ncc1-c1ccc([N+](=O)[O-])cc1O ... 97 % of control
Cc1ccccc1OS(=O)(=O)c1ccccc1[N+](=O)[O-] ... 104 % of control
Cc1cc(CS)c(CS)cc1C ... 93 % of control
O=C1CCC(OC(=O)c2ccccc2)CC1 ... 101 % of control
COc1ccccc1NC(=O)Nc1cccc(C)c1C ... 93 % of control
O=S(O)c1cc(Br)ccc1Br ... 104 % of control
CS(=O)(=O)Nc1ccc(C(=O)O)cc1 ... 107 % of control
OC(/C=C/c1ccccc1)(c1ccccc1)c1ccccc1 ... 93 % of control
CCC(=O)OC1C(C)OC(OC2C(C)OC(O[C@H]3[C@@H](CC=O)C[C@@H](C)[C@@H](O)/C=C/C=C/C[C@@H](C)OC(=O)C[C@@H](OC(=O)CC)[C@@H]3OC)C(O)C2N(C)C)CC1(C)O (some centres not stated) ... 95 % of control

// field: T/C; key: O=C(NCCCl)NNC(=O)c1ccccc1 ; value = 112 % of control

// field: T/C; key: O=C(Nc1cccc(O)c1)Nc1ccccc1F ; value = 110 % of control

// field: T/C; key: CC1(C)C2CCC1(C)C(NCc1cc(Cl)cc(Cl)c1O)C2 (configuration not stated) ; value = 103 % of control

// field: T/C; key: O=C1OC(c2ccccc2)(c2ccccc2)c2ccccc21 ; value = 102 % of control

// field: T/C; key: O=C1c2cc(Br)cc(Br)c2NCCCC1(Br)Br ; value = 97 % of control

// field: T/C; key: COC(=O)c1c(OC)ccc2c1CC1C3Nc4ccccc4C3CCN1C2 (configuration not stated) ; value = 90 % of control

// field: T/C; key: CCN(C(=O)Nc1ccc(OC)cc1)c1ccccc1C ; value = 96 % of control

// field: T/C; key: CCOC(=O)/C=C\n1c(=O)cc(C)c2ccccc21 ; value = 92 % of control

// field: T/C; key: O=C(O)C1(c2ccccc2)OC1c1ccccc1 (configuration not stated) ; value = 95 % of control

// field: T/C; key: CC1=CC(=O)CC(C)C2CC(=C(C)C)CC12 (configuration not stated) ; value = 108 % of control

// field: T/C; key: CC1CC(=O)c2cccc(Cl)c2N1C (configuration not stated) ; value = 100 % of control

// field: T/C; key: CCCCCCCCCC(O)CCCCC (configuration not stated) ; value = 97 % of control

// field: T/C; key: CC1CSC(=S)S1 (configuration not stated) ; value = 104 % of control

// field: T/C; key: COc1ccc(N=Cc2ccc(Cl)cc2)cc1C(F)(F)F ; value = 89 % of control

// field: T/C; key: CC(=O)CC(=O)N1CCCC(C)C1 (configuration not stated) ; value = 106 % of control

// field: T/C; key: c1ccc2ncccc2c1 ; value = 95 % of control

// field: T/C; key: Nc1ccc(N)nc1 ; value = 93 % of control
